Origin of measurements: ChEMBL document CHEMBL1122147

EXPERIMENTAL TARGET: Estrogen receptor (Mus musculus) (UniProt O08537+P19785)
Sequence (O08537 whole entry, looked up): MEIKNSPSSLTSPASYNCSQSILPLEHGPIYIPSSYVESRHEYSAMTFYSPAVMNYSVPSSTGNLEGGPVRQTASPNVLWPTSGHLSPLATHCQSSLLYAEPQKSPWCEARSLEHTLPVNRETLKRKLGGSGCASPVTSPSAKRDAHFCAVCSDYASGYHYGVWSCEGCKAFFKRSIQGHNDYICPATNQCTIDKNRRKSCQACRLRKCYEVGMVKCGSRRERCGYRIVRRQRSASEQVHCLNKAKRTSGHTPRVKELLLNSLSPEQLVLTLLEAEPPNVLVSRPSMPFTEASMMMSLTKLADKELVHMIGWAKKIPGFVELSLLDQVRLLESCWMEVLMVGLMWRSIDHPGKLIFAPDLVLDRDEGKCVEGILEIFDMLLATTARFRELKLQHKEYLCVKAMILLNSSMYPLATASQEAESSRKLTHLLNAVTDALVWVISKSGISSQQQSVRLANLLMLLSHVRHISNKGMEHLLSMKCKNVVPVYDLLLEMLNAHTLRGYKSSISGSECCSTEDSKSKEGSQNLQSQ
Sequence (P19785 whole entry, looked up): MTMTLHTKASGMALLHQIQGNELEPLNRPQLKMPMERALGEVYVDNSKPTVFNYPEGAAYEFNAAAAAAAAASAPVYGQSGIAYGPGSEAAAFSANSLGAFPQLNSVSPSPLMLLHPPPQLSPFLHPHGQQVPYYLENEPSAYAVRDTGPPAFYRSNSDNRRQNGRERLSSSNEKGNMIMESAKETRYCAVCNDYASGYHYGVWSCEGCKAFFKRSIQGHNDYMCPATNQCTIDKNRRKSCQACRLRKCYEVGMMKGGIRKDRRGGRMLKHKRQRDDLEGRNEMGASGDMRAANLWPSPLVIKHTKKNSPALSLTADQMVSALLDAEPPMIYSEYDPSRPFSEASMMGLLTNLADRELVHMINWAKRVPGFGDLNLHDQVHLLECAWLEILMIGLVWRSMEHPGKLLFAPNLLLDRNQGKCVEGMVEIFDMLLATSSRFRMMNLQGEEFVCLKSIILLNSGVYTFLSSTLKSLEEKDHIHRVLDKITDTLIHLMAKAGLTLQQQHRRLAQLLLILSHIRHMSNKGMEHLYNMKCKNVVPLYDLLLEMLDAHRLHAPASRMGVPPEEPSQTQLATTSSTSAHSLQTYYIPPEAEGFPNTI
ASSAY OVERVIEW: Binding affinity for murine Estrogen receptor; No affinity
Type: protein assay
Activity calls are given as the source filed them. The rule behind the calls is not given here.
TEST READOUT: Ka

MOLECULE | TEST READOUT | OBSERVED RESULT
CNC(c1ccc(OC)cc1)C(NC)c1ccc(OC)cc1 (configuration not stated) | Ka | inactive
CNC(c1ccc(O)cc1)C(NC)c1ccc(O)cc1 (configuration not stated) | Ka | inactive
CCCCCNC(c1ccc(OC)cc1)C(NCCCCC)c1ccc(OC)cc1 (configuration not stated) | Ka | inactive
CCCCNC(c1ccc(OC)cc1)C(NCCCC)c1ccc(OC)cc1 (configuration not stated) | Ka | inactive
CCCCNC(c1ccc(O)cc1)C(NCCCC)c1ccc(O)cc1 (single isomer, unassigned; (-)) | Ka | 700000 M⁻¹

(Q) Please look up its Ka: CCCCNC(c1ccccc1OC)C(NCCCC)c1ccccc1OC (configuration not stated)
(A) inactive

(Q) Tell me the measured Ka of CCCCNC(c1ccc(O)cc1)C(NCCCC)c1ccc(O)cc1 (single isomer, unassigned; (+)) , please.
(A) 2.1e+07 M⁻¹

###

EXPERIMENTAL TARGET: Estrogen receptor (Mus musculus) (UniProt O08537+P19785)
ASSAY OVERVIEW: In vitro inhibition of murine Estrogen receptor
Assay type: protein assay
Parameters: concentration or dose not given beside the values
SETUP CONDITIONS: concentration not given here
TEST READOUT: inhibition (%)

COMPOUND | TEST READOUT | OBSERVED RESULT
CCCCN1CN(CCCC)C(c2ccc(O)cc2)C1c1ccc(O)cc1 (stereo in doubt; 7c) | inhibition | 75
CCCCN1CN(CCCC)C(c2ccc(O)cc2)C1c1ccc(O)cc1 (single isomer, unassigned; (+)) | inhibition | 3
CCCCN1C(c2ccc(O)cc2)C(c2ccc(O)cc2)N(CCCC)C1c1ccccc1 (racemic) | inhibition | 39
CCCCN1C(=S)N(CCCC)C(c2ccc(O)cc2)C1c1ccc(O)cc1 (racemic) | inhibition | 75

A. CCCN1CN(CCC)C(c2ccc(O)cc2)C1c1ccc(O)cc1 (racemic)
B. CCCCN1CN(CCCC)C(c2ccc(O)cc2)C1c1ccc(O)cc1 (stereo in doubt; 7d)
(Q) Which shows the larger inhibition value: A or B ? Answer format: the label of the selected item.
(A) A

a. CCCCN1CN(CCCC)C(c2ccc(O)cc2)C1c1ccc(O)cc1 (racemic)
b. CCCCN1C(c2ccc(O)cc2)C(c2ccc(O)cc2)N(CCCC)C1c1ccc(O)cc1 (racemic)
(Q) Hello, I am sorting some records. Could you say if a or b has the smaller inhibition value? Could you answer with the label of the item you picked?
(A) b

###

EXPERIMENTAL TARGET: Estrogen receptor (Mus musculus) (UniProt O08537+P19785)
ASSAY OVERVIEW: Binding affinity for murine Estrogen receptor; No affinity
Format: protein assay
Activity calls are given as the source filed them. The rule behind the calls is not given here.
TEST READOUT: Ka

MOLECULE | Ka
CCCCNC(c1cccc(OC)c1)C(NCCCC)c1cccc(OC)c1 (stereo unspecified) | inactive
CCCCNC(c1ccc(OC)cc1)C(NCCCC)c1ccc(OC)cc1 (stereo unspecified) | inactive
CCCNC(c1ccc(OC)cc1)C(NCCC)c1ccc(OC)cc1 (stereo unspecified) | inactive
CCCCCCNC(c1ccc(OC)cc1)C(NCCCCCC)c1ccc(OC)cc1 (stereo unspecified) | inactive
CCNC(c1ccc(OC)cc1)C(NCC)c1ccc(OC)cc1 (stereo unspecified) | inactive

Now take the following molecule into account.
(Q) Which Ka is reported for this molecule? COc1ccc(C(NC(C)C)C(NC(C)C)c2ccc(OC)cc2)cc1 (stereo unspecified)
(A) inactive
